System: SK-MEL-5 melanoma
Experiment Description: NCI-60 one-dose screen, 48 h (100 = growth as untreated, 0 = no growth, -100 = all killed)
Experimental Setup: 10 µM
About 83,000 compounds went through this panel and 20% of them were active in at least one assay; those are over-represented in the sample as a whole.
Labelling field: enter 1 (yes) if recorded growth is less than 30%. Enter 0 (no) if it equals or exceeds that cut-off.

Input line: Does the reported growth of `CN1C(=O)/C(=C/c2ccc3ncsc3c2)NC1=NC12CC3CC(CC(O)(C3)C1)C2` stay below 30%?
Output line: 1 (yes)

Input line: Does the reported growth of `O=C(Nc1ccc(Cl)c(C(F)(F)F)c1)c1cncc(C#Cc2cnc3ccc(N4CCOCC4)nn23)c1` stay below 30%?
Output line: 1 (yes)

Input line: Does the reported growth of `O=S(=O)(c1ccc(Cl)cc1)c1nc(-c2ccccc2)oc1S(=O)(=O)c1ccc(Cl)cc1` stay below 30%?
Output line: 0 (no)

Input line: Does the reported growth of `N#Cc1ccc(-c2nn(-c3ccc(C(=O)O)cc3)cc2CNc2cc(Cl)cc(C(F)(F)F)c2)cc1` stay below 30%?
Output line: 1 (yes)

Input line: Does the reported growth of `COc1cc2c(cc1OC)/C(=C\c1sc(Nc3ccc(O)cc3)nc1O)C(C(=O)O)=N2` stay below 30%?
Output line: 1 (yes)

Input line: Does the reported growth of `O=c1oc2ccc(-c3ccc(F)cc3F)cc2c(=O)n1-c1ccc(F)cc1` stay below 30%?
Output line: 1 (yes)

Input line: Does the reported growth of `Cc1cc(=O)oc2cc(OCCCCOc3ccc(/C=C/C(=O)Nc4ccc(F)c(Cl)c4)cc3)ccc12` stay below 30%?
Output line: 0 (no)

Input line: Does the reported growth of `Cc1ccc2nc(COc3ccc(C(=O)NNC(=S)NC(=O)c4ccccc4)cc3)[nH]c2c1` stay below 30%?
Output line: 0 (no)

Input line: Does the reported growth of COc1ccc([C@H]2C(C(=O)c3ccc(Cl)cc3)C3(N[C@@H]2c2ccccc2)C(=O)Nc2ccc(Br)cc23)cc1 (stereo not given in full) stay below 30%?
Output line: 1 (yes)

Input line: Does the reported growth of `COc1ccc2[nH]cc(/C=N/Nc3ccc(Br)cn3)c2c1` stay below 30%?
Output line: 1 (yes)

Input line: Does the reported growth of `COc1ccc2c(c1)N=C(C(=O)O)/C2=C/c1sc(Nc2ccc(O)cc2)nc1O` stay below 30%?
Output line: 0 (no)

Input line: Does the reported growth of O=C(c1ccc(Cl)cc1)C1[C@H](c2ccccc2Br)[C@@H](c2ccccc2)NC12C(=O)Nc1ccccc12 (stereo not given in full) stay below 30%?
Output line: 1 (yes)

Input line: Does the reported growth of `COc1ccc(-c2nc(S(=O)(=O)c3ccc(C)cc3)c(S(=O)(=O)CC(=O)N(C)Cc3ccccc3)o2)cc1` stay below 30%?
Output line: 0 (no)

Input line: Does the reported growth of `COc1ccc2nc(Cl)c(-c3cc(-c4ccccc4)nc(=S)[nH]3)cc2c1` stay below 30%?
Output line: 1 (yes)

Input line: Does the reported growth of `COc1ccc(C=CC(=O)c2ccc(-n3c(C)nc4c(cnn4-c4ccccc4)c3=O)cc2)cc1` stay below 30%?
Output line: 1 (yes)

Input line: Does the reported growth of `O=C(/C=C/Nc1ccc(F)cc1F)c1ccc2c(c1)Nc1ccccc1S2` stay below 30%?
Output line: 0 (no)

Input line: Does the reported growth of `O=C(/C=C/Nc1ccccc1)c1ccc2c(c1)Nc1ccccc1S2` stay below 30%?
Output line: 0 (no)

Input line: Does the reported growth of O=C(c1ccc(O)cc1)C1[C@H](c2ccccc2Br)[C@@H](c2ccccc2)NC12C(=O)Nc1ccc(Br)cc12 (stereo not given in full) stay below 30%?
Output line: 0 (no)

Input line: Does the reported growth of `CN1CCN(Cc2ccc(C(=O)Nc3cccc(Nc4ccc5c(O)cccc5n4)c3)cc2C(F)(F)F)CC1` stay below 30%?
Output line: 1 (yes)

Input line: Does the reported growth of `CC(=O)Oc1ccccc1C(=O)Oc1ccc(C(=O)/C=C/c2ccncc2)cc1` stay below 30%?
Output line: 0 (no)

Input line: Does the reported growth of COC(=O)CC1CC1C1Cc2c(nc(N(C)S(C)(=O)=O)nc2C(C)C)-c2ccc(F)cc21 (stereo not given) stay below 30%?
Output line: 0 (no)

Input line: Does the reported growth of CCOC(=O)C1=C(N)N(c2ccccc2)C2=C(C(=O)CC(C)(C)C2)C1c1ccccc1OC (stereo not given) stay below 30%?
Output line: 0 (no)

Input line: Does the reported growth of `O=C(CSc1nnc(-c2ccc3nc(-c4ccccc4)[nH]c3c2)o1)Nc1ccc(Cl)cc1` stay below 30%?
Output line: 1 (yes)

Input line: Does the reported growth of `COc1ccc(C(=O)CSc2nnc(-c3c[nH]c4ccccc34)n2-c2ccccc2)cc1` stay below 30%?
Output line: 0 (no)

Input line: Does the reported growth of `O=S(=O)(Nc1ncccn1)c1ccc(-n2c(-c3ccc(Br)cc3)nc(-c3ccccc3)c2-c2ccccc2)cc1` stay below 30%?
Output line: 1 (yes)

Input line: Does the reported growth of `CCN1CCN(c2ccc(NC(=O)Nc3ccc4c(c3F)CCN4c3ccnc(C(=O)NC)c3)cc2C(F)(F)F)CC1` stay below 30%?
Output line: 1 (yes)

Input line: Does the reported growth of COc1ccc(/C=C/C(=O)c2ccc(NC(=O)CN3C(=O)NC(C)(c4ccccc4)C3=O)cc2)cc1 (stereo not given) stay below 30%?
Output line: 0 (no)

Input line: Does the reported growth of `Cc1ccc(-c2nc(Nc3ccccc3C(=O)O)c3ccccc3n2)cc1` stay below 30%?
Output line: 1 (yes)

Input line: Does the reported growth of CCOC(=O)C1=C(N)N(c2ccc(C)cc2)C2=C(C(=O)CC(C)(C)C2)C1c1ccccc1OC (stereo not given) stay below 30%?
Output line: 0 (no)
